- study.target: TACE enzyme (Homo sapiens, UniProt P78536)
- Sequence (P78536 215-824 limits assumed): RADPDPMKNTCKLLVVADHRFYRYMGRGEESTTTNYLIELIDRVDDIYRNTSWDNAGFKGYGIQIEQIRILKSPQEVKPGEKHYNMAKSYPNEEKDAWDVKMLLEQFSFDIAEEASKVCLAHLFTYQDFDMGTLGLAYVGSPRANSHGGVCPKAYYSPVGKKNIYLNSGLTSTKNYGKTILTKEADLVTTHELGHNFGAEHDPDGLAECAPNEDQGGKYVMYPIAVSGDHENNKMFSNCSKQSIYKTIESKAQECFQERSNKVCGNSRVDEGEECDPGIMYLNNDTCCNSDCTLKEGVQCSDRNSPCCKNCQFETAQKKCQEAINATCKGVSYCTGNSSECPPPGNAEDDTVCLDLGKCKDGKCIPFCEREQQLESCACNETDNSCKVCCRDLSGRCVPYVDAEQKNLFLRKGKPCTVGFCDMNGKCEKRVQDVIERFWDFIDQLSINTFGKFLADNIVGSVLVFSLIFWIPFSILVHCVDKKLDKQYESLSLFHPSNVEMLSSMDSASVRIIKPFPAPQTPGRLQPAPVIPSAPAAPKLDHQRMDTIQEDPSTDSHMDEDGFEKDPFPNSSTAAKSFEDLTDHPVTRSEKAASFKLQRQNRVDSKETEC
- measurement.protocol: Enzymatic test of TACE inhibition (fluorescent substrate)
- Assay type: biochemical
- particulars: at 10 μM
measurement.name: % TACE inhibition at 10 μM (%)

// % TACE inhibition at 10 μM lookup, key: COc1ccc(COc2ccc(C(=O)NC[C@@H](C(=O)NO)N3CCN(S(C)(=O)=O)CC3)cc2)cc1
98

Query (compound): Cc1ccc(COc2ccc(C(=O)NC[C@@H](C(=O)NO)N3CCN(S(C)(=O)=O)CC3)cc2)cc1 ; field requested: % TACE inhibition at 10 μM
96

# lookup: % TACE inhibition at 10 μM of CC#CCOc1ccc(C(=O)NCC(C(=O)NO)N2CCN(S(C)(=O)=O)CC2)cc1 (stereo not drawn)
100

For Cc1cc(COc2ccc(C(=O)NC[C@@H](C(=O)NO)N3CCN(S(C)(=O)=O)CC3)cc2)c2ccccc2n1 , what is its reported % TACE inhibition at 10 μM?
98

Query: % TACE inhibition at 10 μM; subject: CS(=O)(=O)N1CCN([C@@H](CNC(=O)c2ccc(OCc3ccnc4ccccc34)cc2)C(=O)NO)CC1
96

For the compound shown here, O=C(NCC(C(=O)NO)N1CCN(Cc2ccccc2)CC1)c1ccc(OCc2c(C(F)(F)F)nn3ccccc23)cc1 (stereo not drawn) , give the reported % TACE inhibition at 10 μM.
95

Which measured % TACE inhibition at 10 μM value corresponds to CS(=O)(=O)N1CCN([C@@H](CNC(=O)c2ccc(OCC#CCO)cc2)C(=O)NO)CC1 ?
97

// returns reported % TACE inhibition at 10 μM for input CCN1CCN([C@@H](CNC(=O)c2ccc(OCc3cc(C)nc4ccccc34)cc2)C(=O)NO)CC1
90

Item under review: Cc1cc(COc2ccc(C(=O)NC[C@@H](C(=O)NO)N3CCN(Cc4ccccc4)CC3)cc2)c2ccccc2n1 . Reported % TACE inhibition at 10 μM?
97

Any idea what % TACE inhibition at 10 μM was measured for CS(=O)(=O)N1CCN([C@@H](CNC(=O)c2ccc(OCc3ccc(C(F)(F)F)cc3)cc2)C(=O)NO)CC1 ?
97

Return reported % TACE inhibition at 10 μM; argument: Cc1cc(COc2ccc(C(=O)NC[C@@H](C(=O)NO)N3CCN(S(C)(=O)=O)CC3)cc2)c2ccccc2n1.Cl.Cl
98

Can you look up the measured % TACE inhibition at 10 μM of Cc1cc(COc2ccc(C(=O)NC[C@@H](C(=O)NO)N3CCN(S(=O)(=O)C(C)C)CC3)cc2)c2ccccc2n1 for me?
97

Given the entry CS(=O)(=O)N1CCN([C@@H](CNC(=O)c2ccc(OCc3ccccc3)cc2)C(=O)NO)CC1 , report its measured % TACE inhibition at 10 μM.
100

Which measured % TACE inhibition at 10 μM value corresponds to CS(=O)(=O)N1CCN([C@@H](CNC(=O)c2ccc(OCc3ccncc3)cc2)C(=O)NO)CC1 ?
98

Dear colleague, I am looking for the recorded % TACE inhibition at 10 μM of the following compound: Cc1ccc2ccccc2c1COc1ccc(C(=O)NC[C@@H](C(=O)NO)N2CCN(S(C)(=O)=O)CC2)cc1
90
